Biological target: GSK3β (Homo sapiens, UniProt P49841)
Sequence (P49841 whole entry): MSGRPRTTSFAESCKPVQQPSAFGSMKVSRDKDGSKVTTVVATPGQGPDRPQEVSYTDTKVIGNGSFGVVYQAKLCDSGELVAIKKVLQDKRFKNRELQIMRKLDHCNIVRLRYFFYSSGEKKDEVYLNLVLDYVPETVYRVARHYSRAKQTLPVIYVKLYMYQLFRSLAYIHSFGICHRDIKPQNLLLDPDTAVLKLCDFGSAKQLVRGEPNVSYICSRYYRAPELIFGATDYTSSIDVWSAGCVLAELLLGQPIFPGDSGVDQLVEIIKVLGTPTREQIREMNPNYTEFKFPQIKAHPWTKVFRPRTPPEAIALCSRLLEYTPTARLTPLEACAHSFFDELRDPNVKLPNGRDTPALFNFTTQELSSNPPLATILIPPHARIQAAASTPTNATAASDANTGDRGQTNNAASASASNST
PARAMETER: pIC50
The meaning of pIC50 here: minus log10 of the concentration in molar units.

For this molecule ( Cn1cc(C2=C(c3coc4ccc(F)cc34)C(=O)NC2=O)c2cc3c(cc21)OCO3 [elraglusib] ), measured pIC50 is 6.43
